Ref: patent US10010545B1

system: Acinetobacter baumannii; test: Growth testing against ESKAPE pathogens: Acinetobacter baumannii; type: cell-based; parameters: key: Growth; X: No Growth; details: 9 μg/ml
property_name: Activity against Acinetobacter baumannii (growth observed)

Record excerpt, results attached:
| compound | result_value |
| --- | --- |
| CCCCCCC(=O)N1CCN(c2cc3c(cc2F)c(=O)c(C(=O)OC2C(=O)N(SC)C2c2ccccc2)cn3C2CC2)CC1 (stereo not drawn) | G |
| CCCCCC(=O)N1CCN(c2cc3c(cc2F)c(=O)c(C(=O)OC2C(=O)N(SC)C2c2ccccc2)cn3C2CC2)CC1 (stereo not drawn) | G |
| CCCCCC(=O)N1CCN(c2cc3c(cc2F)c(=O)c(C(=O)OC2C(=O)N(c4ccc(OC)cc4)C2c2ccccc2Cl)cn3C2CC2)CC1 (stereo not drawn) | G |
| CCCCCCC(=O)N1CCN(c2cc3c(cc2F)c(=O)c(C(=O)OC2C(=O)N(SC(C)CC)C2c2ccccc2Cl)cn3C2CC2)CC1 (stereo not drawn) | G |
| CCCCCC(=O)N1CCN(c2cc3c(cc2F)c(=O)c(C(=O)OC2C(=O)N(SC(C)CC)C2c2ccccc2Cl)cn3C2CC2)CC1 (stereo not drawn) | G |

We next turn to a different compound, shown below.
Request: Please report the recorded Activity against Acinetobacter baumannii (growth observed) for CCC(C)SN1C(=O)C(OC(=O)c2cn(C3CC3)c3cc(N4CCN(C(C)=O)CC4)c(F)cc3c2=O)C1c1ccccc1Cl (stereo not drawn) .
Response: G

====

tested on: Acinetobacter baumannii; assay: Growth testing against ESKAPE pathogens: Acinetobacter baumannii; type: cell-based; parameters: key: Growth; X: No Growth; settings: 6 μg/ml
property_name: Activity against Acinetobacter baumannii (growth observed)

| molecule | result_value |
| --- | --- |
| CCCCCC(=O)N1CCN(c2cc3c(cc2F)c(=O)c(C(=O)OC2C(=O)N(c4ccc(OC)cc4)C2c2ccccc2Cl)cn3C2CC2)CC1 (stereo not drawn) | G |
| CCCCCCC(=O)N1CCN(c2cc3c(cc2F)c(=O)c(C(=O)OC2C(=O)N(SC)C2c2ccccc2)cn3C2CC2)CC1 (stereo not drawn) | G |
| CCCCCCC(=O)N1CCN(c2cc3c(cc2F)c(=O)c(C(=O)OC2C(=O)N(SC(C)CC)C2c2ccccc2Cl)cn3C2CC2)CC1 (stereo not drawn) | G |
